# system-tested: human GOAT (Homo sapiens)
# Construct: made in house; host or cells: Sf9 insect cells (BacToBac baculovirus, pFastBac1 vector); microsome fraction
# protocol-description: GOAT enzyme activity measurement by HTRF method (human GOAT-expressing microsome fraction)
# Type: biochemical
# test-parameters: 10 μM compound; human GOAT-expressing Sf9 microsome fraction; octanoyl-CoA and Ghrelin-biotin substrates; 0% control without compound, 100% control without enzyme
reported-endpoint: inhibition at 10 µM

compound	system-tested	result
Cc1ccc(COc2cc(C(F)(F)F)c3c(CC(=O)O)csc3c2)c(C)n1	human GOAT (Homo sapiens)	103%
O=C(O)CC1CSc2cc(OCc3ccc(Cl)cc3Cl)ccc21 (stereo not drawn)	human GOAT (Homo sapiens)	99%
Cc1nc(C(F)(F)F)ncc1COc1cc(C)c2c(CC(=O)O)csc2c1	human GOAT (Homo sapiens)	100%
COC(=O)Cc1c(C)sc2cc(OCc3ccc(C(F)(F)F)nc3C)cc(Cl)c12	human GOAT (Homo sapiens)	51.5%
CCOC(=O)Cc1csc2cc(OCc3ccc(C)nc3C)ccc12	human GOAT (Homo sapiens)	92.8%
O=C(O)Cc1coc2c(Cl)c(OCc3ccc(Cl)cc3Cl)ccc12	human GOAT (Homo sapiens)	100%
CCC(=O)NCC[C@@H]1COc2cc(OCc3ccc(Cl)cc3Cl)ccc21	human GOAT (Homo sapiens)	59%
COC(=O)Cc1csc2c(F)c(OCc3ccc(C(F)(F)F)nc3C)cc(Cl)c12	human GOAT (Homo sapiens)	88.6%
O=C(O)Cc1csc2cc(OCc3ccc(Cl)cc3Cl)ccc12	human GOAT (Homo sapiens)	99.2%
Cc1nc(C(F)(F)F)ccc1COc1ccc2c(CC(=O)O)csc2c1	human GOAT (Homo sapiens)	93.1%
Cc1nc(C(F)(F)F)ncc1COc1ccc2c(CC(=O)O)csc2c1	human GOAT (Homo sapiens)	97.3%
O=C(O)C[C@@H]1COc2cc(OCc3ccc(Cl)cc3Cl)ccc21	human GOAT (Homo sapiens)	93%
Cc1nc(C(F)(F)F)ccc1COc1cc(F)c2c(CC(=O)O)csc2c1	human GOAT (Homo sapiens)	102%
Cc1nc(C(F)(F)F)ccc1COc1cc(Cl)c2c(CC(=O)O)c(C)sc2c1	human GOAT (Homo sapiens)	103%
CCS(=O)(=O)NC(=O)Cc1csc2cc(OCc3ccc(Cl)cc3Cl)ccc12	human GOAT (Homo sapiens)	83.2%
Cc1cc(OCc2ccc(Cl)cc2Cl)c(C)c2c1C(CC(=O)O)CO2 (stereo not drawn)	human GOAT (Homo sapiens)	96.2%
Cc1nc(C(F)(F)F)ccc1COc1cc(C)c2c(CC(=O)O)csc2c1C	human GOAT (Homo sapiens)	105%
COC(=O)Cc1c(C)sc2cc(OCc3cc(C(F)(F)F)nn3C)cc(Cl)c12	human GOAT (Homo sapiens)	99.5%
COC(=O)Cc1csc2cc(OCc3cc(C(F)(F)F)nn3C)cc(Cl)c12	human GOAT (Homo sapiens)	100%
CCOC(=O)Cc1csc2cc(OCc3ccc(Cl)cc3Cl)ccc12	human GOAT (Homo sapiens)	69%
COC(=O)Cc1csc2c(F)c(OCc3cc(C(F)(F)F)nn3C)cc(Cl)c12	human GOAT (Homo sapiens)	98.9%
Cn1nc(C(F)(F)F)cc1COc1cc(F)c2c(CC(=O)O)csc2c1	human GOAT (Homo sapiens)	104%
Cc1cc(COc2cc(Cl)c3c(CC(=O)O)csc3c2)n(C)n1	human GOAT (Homo sapiens)	105%
COC(=O)Cc1csc2cc(OCc3ccc(C(F)(F)F)nc3C)cc(Cl)c12	human GOAT (Homo sapiens)	91.6%
Cc1nc(C(F)(F)F)ccc1COc1cc(Cl)c2c(CC(=O)O)csc2c1Cl	human GOAT (Homo sapiens)	106%
CC(=O)NCC[C@@H]1COc2cc(OCc3ccc(Cl)cc3Cl)ccc21	human GOAT (Homo sapiens)	69%
Cc1c(OCc2ccc(Cl)cc2Cl)cc(C)c2c(CC(=O)O)coc12	human GOAT (Homo sapiens)	103%
O=C(O)C1(CO)COc2cc(OCc3ccc(Cl)cc3Cl)ccc21 (stereo not drawn)	human GOAT (Homo sapiens)	81%
Cc1nc(C(F)(F)F)ccc1COc1cc(Cl)c2c(CC(=O)O)csc2c1	human GOAT (Homo sapiens)	101%
COC(=O)Cc1csc2cc(OCc3cc(C(F)(F)F)nn3C)cc(C)c12	human GOAT (Homo sapiens)	95.2%
O=C(O)CNC(=O)Cc1csc2cc(OCc3ccc(Cl)cc3Cl)ccc12	human GOAT (Homo sapiens)	95%
COC(=O)Cc1csc2c(F)c(OCc3cc(C(F)(F)F)nn3C)cc(C)c12	human GOAT (Homo sapiens)	96.1%
O=C(O)Cc1csc2cc(SCc3ccc(Cl)cc3Cl)ccc12	human GOAT (Homo sapiens)	99.3%
Cc1nc(C(F)(F)F)ccc1COc1cc(C)c2c(CC(=O)O)csc2c1F	human GOAT (Homo sapiens)	106%
Cc1nc(C(F)(F)F)ccc1COc1cc(C)c2c(CC(=O)O)csc2c1	human GOAT (Homo sapiens)	99.2%
O=C(Cc1csc2cc(OCc3ccc(Cl)cc3Cl)ccc12)N[C@@H](CO)C(=O)O	human GOAT (Homo sapiens)	97%

----------
# system-tested: human GOAT (Homo sapiens)
# Construct: made in house; host or cells: Sf9 insect cells (BacToBac baculovirus, pFastBac1 vector); microsome fraction
# Sequence (Q96T53 1-435): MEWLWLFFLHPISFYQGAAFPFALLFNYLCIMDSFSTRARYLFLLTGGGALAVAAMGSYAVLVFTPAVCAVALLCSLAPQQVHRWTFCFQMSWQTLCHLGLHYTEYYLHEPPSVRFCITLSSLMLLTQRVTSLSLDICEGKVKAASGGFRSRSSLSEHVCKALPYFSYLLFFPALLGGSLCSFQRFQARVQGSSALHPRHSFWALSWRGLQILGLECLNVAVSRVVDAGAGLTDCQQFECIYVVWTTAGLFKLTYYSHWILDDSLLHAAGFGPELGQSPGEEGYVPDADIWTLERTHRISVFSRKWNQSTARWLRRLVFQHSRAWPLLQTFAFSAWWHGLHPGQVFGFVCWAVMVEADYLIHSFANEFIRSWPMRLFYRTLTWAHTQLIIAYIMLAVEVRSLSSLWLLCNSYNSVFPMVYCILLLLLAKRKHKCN
# protocol-description: GOAT enzyme activity measurement by HTRF method (human GOAT-expressing microsome fraction)
# Assay type: biochemical
# test-parameters: 10 μM compound; human GOAT-expressing Sf9 microsome fraction; octanoyl-CoA and Ghrelin-biotin substrates; 0% control without compound, 100% control without enzyme
reported-endpoint: inhibition at 10 µM (%)

compound	display-unit	numeric-value
O=C(O)CC1CS(=O)(=O)c2cc(OCc3ccc(Cl)cc3Cl)ccc21 (centres unmarked)	%	79
Cc1nc(C(F)(F)F)ccc1COc1cc(Cl)c2c(CC(=O)O)csc2c1F	%	106
COC(=O)Cc1csc2cc(OCc3ccc(C)nc3C)cc(Cl)c12	%	96.5
COC(=O)Cc1coc2c(C)c(OCc3ccc(Cl)cc3Cl)cc(C)c12	%	68.7
Cc1cc(OCc2cc(C(F)(F)F)nn2C)cc2scc(CC(=O)O)c12	%	104
Cc1ccc(COc2cc(C)c3c(c2C)OCC3CC(=O)O)c(C)n1 (centres unmarked)	%	94.8
Cn1nc(C(F)(F)F)cc1COc1cc(Cl)c2c(CC(=O)O)csc2c1	%	105
Cc1cc(OCc2ccc(Cl)cc2Cl)cc2scc(CC(=O)O)c12	%	103
COC(=O)Cc1csc2cc(OCc3cc(C)nn3C)cc(Cl)c12	%	97.4
Cn1nc(C(F)(F)F)cc1COc1cc(Cl)c2c(CC(=O)O)csc2c1F	%	107
Cc1ccc(COc2ccc3c(CC(=O)O)csc3c2)c(C)n1	%	99
Cn1nc(C(F)(F)F)cc1COc1cc(Cl)c2c(CC(=O)O)csc2c1Cl	%	105
Cc1cc(COc2cc(C)c3c(CC(=O)O)csc3c2)n(C)n1	%	95.6
CCOC(=O)Cc1csc2cc(OCc3cc(C(F)(F)F)nn3C)ccc12	%	88.9

----------
# system-tested: human GOAT (Homo sapiens, UniProt Q96T53)
# Construct: made in house; host or cells: Sf9 insect cells (BacToBac baculovirus, pFastBac1 vector); microsome fraction
# protocol-description: GOAT enzyme activity measurement by HTRF method (human GOAT-expressing microsome fraction)
# Assay type: biochemical
# test-parameters: 10 μM compound; human GOAT-expressing Sf9 microsome fraction; octanoyl-CoA and Ghrelin-biotin substrates; 0% control without compound, 100% control without enzyme
reported-endpoint: inhibition at 10 µM (%)

compound	display-unit	numeric-value
COC(=O)Cc1csc2c(Cl)c(OCc3cc(C(F)(F)F)nn3C)cc(Cl)c12 [Example 27]	%	92.7
COC(=O)[C@H](CO)NC(=O)Cc1csc2cc(OCc3ccc(Cl)cc3Cl)ccc12 [Example 54]	%	86
COC(=O)Cc1csc2c(Cl)c(OCc3ccc(C(F)(F)F)nc3C)cc(Cl)c12 [Example 29]	%	88.1
COC(=O)Cc1csc2cc(OCc3cc(C(F)(F)F)nn3C)cc(F)c12 [Example 302]	%	99.9
O=C(O)Cc1csc2cc([S+]([O-])Cc3ccc(Cl)cc3Cl)ccc12 (centres unmarked) [Example 84]	%	67
O=C(O)C[C@H]1COc2cc(OCc3ccc(Cl)cc3Cl)ccc21 [Example 263]	%	86
Cn1nc(C(F)(F)F)cc1COc1cc(C(F)(F)F)c2c(CC(=O)O)csc2c1 [Example 32]	%	103
CC(=O)NCCc1coc2cc(OCc3ccc(Cl)cc3Cl)ccc12 [Example 196]	%	73
Cn1nc(C(F)(F)F)cc1COc1ccc2c(CC(=O)O)csc2c1 [Example 18]	%	98.2
Cc1ccc(CCc2ccc3c(CC(=O)O)csc3c2)c(C)n1 [Example 182]	%	97.3
COCC1(C(=O)O)COc2cc(OCc3ccc(Cl)cc3Cl)ccc21 (centres unmarked) [Example 281]	%	85
